Each recorded value in this set is attributed to patent US20030199540A1.

observationType: melting point

>  <sampleSmiles>
CCOc1ccc(OC(F)(F)F)cc1CN[C@H]1CCCN[C@H]1c1ccccc1.Cl

>  <result>
> 275 °C (dec.)

$$$$
>  <sampleSmiles>
Cc1ccc(OC(F)F)c(CN[C@H]2CCCN[C@H]2c2ccccc2)c1.Cl

>  <result>
> 275 °C

$$$$
>  <sampleSmiles>
CC(C)c1ccc(OC(F)F)c(CN[C@H]2CCCN[C@H]2c2ccccc2)c1.Cl

>  <result>
245 to 247 °C (dec.)

$$$$
>  <sampleSmiles>
CC(C)(C)c1ccc(OC(F)(F)F)c(CN[C@H]2CCCN[C@H]2c2ccccc2)c1.Cl

>  <result>
262 to 264 °C

$$$$
>  <sampleSmiles>
CC(C)(C)c1ccc(OC(F)F)c(CN[C@H]2CCCN[C@H]2c2ccccc2)c1.Cl

>  <result>
263 to 264 °C (dec.)

$$$$

###

>  <sampleSmiles>
Cl.FC(F)Oc1ccc(OC(F)F)c(CN[C@H]2CCCN[C@H]2c2ccccc2)c1

>  <melting point>
238 to 239 °C

$$$$
>  <sampleSmiles>
Cl.FC(F)(F)Oc1ccccc1CN[C@H]1CCCN[C@H]1c1ccccc1

>  <melting point>
231 to 233 °C

$$$$
>  <sampleSmiles>
CC(C)c1ccc(OCC(F)(F)F)c(CN[C@H]2CCCN[C@H]2c2ccccc2)c1.Cl

>  <melting point>
> 280 °C

$$$$
>  <sampleSmiles>
CC(C)Oc1ccc(OC(F)(F)F)cc1CN[C@H]1CCCN[C@H]1c1ccccc1.Cl

>  <melting point>
245 to 246 °C (dec.)

$$$$
>  <sampleSmiles>
CC(=O)Nc1ccc(OCC(F)(F)F)c(CN[C@H]2CCCN[C@H]2c2ccccc2)c1.Cl

>  <melting point>
> 270 °C

$$$$
